Biological target: Cyclin-dependent kinase 1 (Homo sapiens, UniProt P06493)
Sequence (P06493 whole entry): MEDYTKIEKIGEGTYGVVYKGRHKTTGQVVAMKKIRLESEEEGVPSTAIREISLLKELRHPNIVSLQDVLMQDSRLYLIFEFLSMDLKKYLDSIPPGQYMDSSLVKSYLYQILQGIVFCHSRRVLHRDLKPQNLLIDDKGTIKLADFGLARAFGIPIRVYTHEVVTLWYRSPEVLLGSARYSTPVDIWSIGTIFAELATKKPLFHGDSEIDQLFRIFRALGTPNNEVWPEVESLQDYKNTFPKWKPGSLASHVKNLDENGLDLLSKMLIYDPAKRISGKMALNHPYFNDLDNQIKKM
Value Kind: IC50 (µM)
Only the number, expressed in µM, is required.

IC50 measured on `CN1C[C@@H]2C[C@H]1CN2c1ccc(-c2ccnc3c(-c4cccc(O)c4)c(-c4ccncc4)nn23)cc1` = 28.4

###

Target: Casein kinase I isoform gamma-1 (Homo sapiens)
Sequence (Q9HCP0 whole entry, canonical isoform): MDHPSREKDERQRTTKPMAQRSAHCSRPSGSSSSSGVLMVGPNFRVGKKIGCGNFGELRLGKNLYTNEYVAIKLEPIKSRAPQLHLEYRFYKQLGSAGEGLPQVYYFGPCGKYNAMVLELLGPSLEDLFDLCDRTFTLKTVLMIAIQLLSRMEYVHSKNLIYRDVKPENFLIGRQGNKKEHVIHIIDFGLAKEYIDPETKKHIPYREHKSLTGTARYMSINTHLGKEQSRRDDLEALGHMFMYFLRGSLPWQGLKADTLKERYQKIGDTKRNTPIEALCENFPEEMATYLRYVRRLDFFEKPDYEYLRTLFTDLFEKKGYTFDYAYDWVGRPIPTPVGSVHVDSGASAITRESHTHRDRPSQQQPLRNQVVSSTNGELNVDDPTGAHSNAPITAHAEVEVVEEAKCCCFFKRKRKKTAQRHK
Test: Inhibition of CK1gamma1
Value Kind: pIC50
Remember, pIC50 is on a log scale: it is -log10 of the molar concentration.

Here `CN1C[C@@H]2C[C@H]1CN2c1ccc(-c2ccnc3c(-c4cccc(O)c4)c(-c4ccncc4)nn23)cc1` was tested on Casein kinase I isoform gamma-1 (Homo sapiens), and its pIC50 came to 5.02
